Answer each item with its documented IC50.
# Tested on: human colorectal cancer HCT116 cells
# PROTOCOL: Inhibitory effect on growth of human cancer cells (in vitro), WST-8
# Type: cell-based
# CONDITION CONTEXT: Homo sapiens, HCT-116, 96 h, 96 hours culture
Write it as a number; the unit nM goes unstated.

Lookup: Please report the recorded IC50 for Cc1[nH]c(-c2nnc(C(C)C)o2)c(C)c1C(=O)c1cccc(Br)c1 [Compound 178] .
Found: 45.1

Lookup: Form field: reported IC50 of CCc1nnc(-c2[nH]c(C)c(C(=O)c3cccc(OC)c3)c2C)o1 [Compound 193]
Found: 2.5

Lookup: # lookup: IC50 of COc1ccc(C(=O)c2c(C(C)O)[nH]c(-c3nnn(CCO)n3)c2C)cc1Br (centres unmarked) [Compound 131]
Found: 90.9

Lookup: Name the recorded IC50 for COc1ccc(C(=O)c2c(CO)[nH]c(-c3nnc(C4CC4)o3)c2C)cc1Br [Compound 266] .
Found: 1.6

Lookup: Request the reported IC50 associated with CC(=O)OCc1nnc(-c2[nH]c(C)c(C(=O)c3cccc(Br)c3)c2C)o1 [Compound 210]
Found: 42.9

Lookup: Data request, read-out IC50, for Cc1[nH]c(-c2nnc(C3CC3C)o2)c(C)c1C(=O)c1cccc(Br)c1 (centres unmarked) [Compound 190]
Found: 219

Lookup: Field request: IC50 | item: Cc1[nH]c(-c2nnn(CCO)n2)c(Br)c1C(=O)c1cccc(Br)c1 [Compound 288]
Found: 7.1

Lookup: I'd like to know its IC50. The compound in question is CC(=O)OCCc1nnc(-c2[nH]c(C)c(C(=O)c3cccc(Br)c3)c2C)o1 [Compound 204]
Found: 8.9
